Reported protein stability index values are given for each entry in this list.
B1: RSPH3 (parent)
chain: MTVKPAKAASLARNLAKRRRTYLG

Variants of: B1
Assay Notes: protein stability index of a GFP-peptide fusion (GPS, HEK-293T) (PSI 1-6); higher = more stable;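 further: lentivirally expressed fusions sorted by FACS into six bins by GFP to DsRed ratio, PSI derived from sequencing read proportions per bin multiplied by bin number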
Setup Conditions: c terminus: a fixed tail appended
Simply state the number, no unit and no words.

Request: // query protein stability index value for entry L15E
Result: 4.42

Request: Param item: N14Y
Result: 2.75

***
Request: // query protein stability index value for entry T2C
Result: 2.16

Request: Param item: A12W
Result: 2.09

Request: Param item: R19A
Result: 1.79

Request: Param item: K17Q
Result: 2.49

Request: Param item: A9W
Result: 1.9

Request: Param item: L23W
Result: 3.34

Request: Param item: R20M
Result: 2.72

Request: Param item: K17I
Result: 2.46

Request: Param item: R19N
Result: 2.37

Request: Param item: G24C
Result: 2.64

Request: Param item: L15S
Result: 3.75

Request: Param item: Y22D
Result: 3.31

Request: Param item: A16R
Result: 3.35

Request: Param item: R20S
Result: 2.61

Request: Param item: A8N
Result: 2.58

Request: Param item: K17E
Result: 2.99

Request: Param item: K4N
Result: 2.69

Request: Param item: L11F
Result: 2.19
